- System: MOLM-13 human acute myeloid leukemia cells
- measurement.protocol: Proliferation assay, MOLM-13 (Cell Titre-Glo)
- Type: cell-based
- condition: MOLM-13, 72-hour exposure, read-out: Inhibition of MOLM-13 cell proliferation
Mark true for IC50 under 6 nM, false if at or over.

1. CCc1cc(CS(C)(=N)=O)cc(Nc2cc(-c3ccc(F)c4ccoc34)c(F)cn2)n1 (racemic) = true
2. CS(=N)(=O)Cc1ccnc(Nc2cc(-c3ccc(F)c4ccoc34)c(F)cn2)c1 (racemic) = false
3. CS(=N)(=O)Cc1cc(F)nc(Nc2cc(-c3ccc(F)c4ccoc34)c(F)cn2)c1 (racemic) = false
4. Cc1cc(CS(C)(=N)=O)cc(Nc2cc(-c3ccc(F)c4ccoc34)c(F)cn2)n1 (racemic) = false

====

- Tested on: B16F10, mouse melanoma cells
- measurement.protocol: Proliferation assay, B16F10 (crystal violet)
- Assay type: cell-based
- condition: B16-F10, 96 h, B16F10, 4 days, read-out: Inhibition of B16F10 cell proliferation
result.type: IC50 (nM)

1) CS(=N)(=O)Cc1cc(Nc2cc(-c3ccc(F)c4ccoc34)c(F)cn2)nc(C(F)(F)F)c1 (racemic) [Example 3] = 19
2) Cc1cc(CS(C)(=N)=O)cc(Nc2cc(-c3ccc(F)c4ccoc34)c(F)cn2)n1 (racemic) [Example 7] = 17
3) CCc1cc(CS(C)(=N)=O)cc(Nc2cc(-c3ccc(F)c4ccoc34)c(F)cn2)n1 (racemic) [Example 8] = 32
4) CS(=O)(Cc1cc(F)nc(Nc2cc(-c3ccc(F)c4ccoc34)c(F)cn2)c1)=NC(=O)C(F)(F)F (racemic) [Example 2] = 42
5) CS(=N)(=O)Cc1cc(F)nc(Nc2cc(-c3ccc(F)c4ccoc34)c(F)cn2)c1 (racemic) [Example 1] = 41
6) CS(=N)(=O)Cc1ccnc(Nc2cc(-c3ccc(F)c4ccoc34)c(F)cn2)c1 (racemic) [Example 5] = 53
7) CS(=O)(Cc1ccnc(Nc2cc(-c3ccc(F)c4ccoc34)c(F)cn2)c1)=NC(=O)C(F)(F)F (racemic) [Example 6] = 88
8) CS(=O)(Cc1cc(Nc2cc(-c3ccc(F)c4ccoc34)c(F)cn2)nc(C(F)(F)F)c1)=NC(=O)C(F)(F)F (racemic) [Example 4] = 44

====

- system.tested: CDK9/CycT1 (Homo sapiens)
- Construct: Recombinant full-length His-tagged human CDK9 and CycT1; His; purchased Invitrogen PV4131; host or cells: insect cells
- Sequence (P50750 whole entry): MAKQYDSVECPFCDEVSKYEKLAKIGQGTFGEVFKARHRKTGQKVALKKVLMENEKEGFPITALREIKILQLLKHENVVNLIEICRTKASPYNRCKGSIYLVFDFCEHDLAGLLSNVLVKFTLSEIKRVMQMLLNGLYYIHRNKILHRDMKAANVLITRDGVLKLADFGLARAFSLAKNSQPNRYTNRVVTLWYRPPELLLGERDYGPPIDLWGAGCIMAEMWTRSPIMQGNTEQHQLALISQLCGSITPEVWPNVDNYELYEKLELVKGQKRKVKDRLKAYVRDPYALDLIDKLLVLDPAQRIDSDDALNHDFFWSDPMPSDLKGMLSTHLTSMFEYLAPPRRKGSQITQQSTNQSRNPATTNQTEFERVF
- Sequence (O60563 whole entry partner): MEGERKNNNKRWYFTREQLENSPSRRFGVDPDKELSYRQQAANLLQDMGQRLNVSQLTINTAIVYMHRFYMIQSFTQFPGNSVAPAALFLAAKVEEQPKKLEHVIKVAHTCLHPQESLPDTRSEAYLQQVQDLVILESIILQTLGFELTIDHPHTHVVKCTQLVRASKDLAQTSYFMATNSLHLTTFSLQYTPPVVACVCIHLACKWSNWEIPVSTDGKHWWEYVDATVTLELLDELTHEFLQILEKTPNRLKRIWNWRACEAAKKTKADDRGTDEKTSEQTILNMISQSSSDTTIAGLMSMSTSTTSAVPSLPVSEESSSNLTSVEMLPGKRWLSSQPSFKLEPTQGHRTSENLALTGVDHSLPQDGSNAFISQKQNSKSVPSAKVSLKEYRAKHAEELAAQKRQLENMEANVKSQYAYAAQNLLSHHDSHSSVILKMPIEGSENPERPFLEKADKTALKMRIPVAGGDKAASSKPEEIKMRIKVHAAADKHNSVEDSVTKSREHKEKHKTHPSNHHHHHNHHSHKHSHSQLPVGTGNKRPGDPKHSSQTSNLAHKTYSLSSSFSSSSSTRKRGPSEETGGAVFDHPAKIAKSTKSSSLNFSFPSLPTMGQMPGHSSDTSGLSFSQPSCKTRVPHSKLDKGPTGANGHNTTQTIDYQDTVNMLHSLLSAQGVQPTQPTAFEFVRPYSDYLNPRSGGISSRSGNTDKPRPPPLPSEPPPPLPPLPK
- measurement.protocol: CDK9/CycT1 kinase assay (Method 1a, TR-FRET)
- Assay type: biochemical
- condition: Method 1a, 10 μM ATP
Listed below: IC50 values for each entry.
result.type: IC50 (nM)

1) CS(=O)(Cc1ccnc(Nc2cc(-c3ccc(F)c4ccoc34)c(F)cn2)c1)=NC#N (racemic) [Example 9] = 2.6
2) CS(=N)(=O)Cc1cc(F)nc(Nc2cc(-c3ccc(F)c4ccoc34)c(F)cn2)c1 (racemic) [Example 1] = 4
3) CS(=O)(Cc1cc(F)nc(Nc2cc(-c3ccc(F)c4ccoc34)c(F)cn2)c1)=NC(=O)C(F)(F)F (racemic) [Example 2] = 7
4) CS(=N)(=O)Cc1cc(Nc2cc(-c3ccc(F)c4ccoc34)c(F)cn2)nc(C(F)(F)F)c1 (racemic) [Example 3] = 5.8
5) CS(=O)(Cc1cc(Nc2cc(-c3ccc(F)c4ccoc34)c(F)cn2)nc(C(F)(F)F)c1)=NC(=O)C(F)(F)F (racemic) [Example 4] = 19
